Biological target: T1, human C-KIT-Fc (human, UniProt P10721 26-524)
T1 construct: also called biotinylated human C-KIT-Fc; not shown: Fc part not described
Assay: direct ELISA;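 also: Plate-coated C-KIT-Fc (1 µg/ml) probed with antibodies for 1 hr, bound IgG detected via anti-human kappa-HRP and TMB, absorbance measured at 450 nm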
Property: binding result

* MH5.11 (antibody, IgG1, V domains shown, IgG1) VH: QVQLVQSGAEVKKPGASVKVSCKASGYTFTDHYMNWVRQAPGQGLEWMGRIYPASGNTYYAQKFQGRVTMTRDTSTSTVYMELSSLRSEDTAVYYCARGVWYYDYWGQGTLVTVSS VL: DIQMTQSPSSLSASVGDRVTITCRASQGIRTNLAWFQQKPGKAPKSLIYAASSLQSGVPSRFSGSGSGTDFTLTISSLQPEDFATYYCQQYANYPRTFGGGTKVEIK | binds
* MH5.26 (antibody, IgG1, V domains shown, IgG1) VH: QVQLVQSGAEVKKPGASVKVSCKASGYTFTNYYMNWVRQAPGQGLEWMGRIYPGTGNTYYAQKFQGRVTMTRDTSTSTVYMELSSLRSEDTAVYYCARGVWYFDSWGQGTLVTVSS VL: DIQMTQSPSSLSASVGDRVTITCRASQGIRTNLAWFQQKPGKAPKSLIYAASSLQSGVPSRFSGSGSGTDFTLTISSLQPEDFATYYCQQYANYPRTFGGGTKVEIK | binds
* MH5.17 (antibody, IgG1, V domains shown, IgG1) VH: QVQLVQSGAEVKKPGASVKVSCKASGYTFTDFYMNWVRQAPGQGLEWMGRIYPGTGNTYYAQKFQGRVTMTRDTSTSTVYMELSSLRSEDTAVYYCARGVWYFDEWGQGTLVTVSS VL: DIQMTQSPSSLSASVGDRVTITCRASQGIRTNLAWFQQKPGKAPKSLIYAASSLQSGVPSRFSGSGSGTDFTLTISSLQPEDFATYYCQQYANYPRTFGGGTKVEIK | binds
